Measured values drawn from ChEMBL document CHEMBL1144541 for this set.

# Test system: Mus musculus
# test-details: Antinociceptive activity in ip dosed Swiss albino mouse assessed as latency time after 120 mins by hot plate method
# Assay type: functional
assay-metric: Activity (s)

>>> numeric_value("c1ccc(-c2nc(-c3ccccc3)c(-c3ccccc3)[nH]2)cc1")
6.1
>>> numeric_value("Cc1ccc(-c2nc(-c3ccccc3)c(-c3ccccc3)[nH]2)cc1")
4.82
>>> numeric_value("Cc1nc(-c2ccccc2)c(-c2ccccc2)[nH]1")
5.52
>>> numeric_value("Clc1cccc(-c2nc(-c3ccccc3)c(-c3ccccc3)[nH]2)c1")
8.91
>>> numeric_value("Oc1ccccc1-c1nc(-c2ccccc2)c(-c2ccccc2)[nH]1")
9.16
>>> numeric_value("Oc1ccc(-c2nc(-c3ccccc3)c(-c3ccccc3)[nH]2)cc1")
10.33
>>> numeric_value("O=[N+]([O-])c1ccccc1-c1nc(-c2ccccc2)c(-c2ccccc2)[nH]1")
4.71
>>> numeric_value("Ic1ccc(-c2nc(-c3ccccc3)c(-c3ccccc3)[nH]2)cc1")
6.18
>>> numeric_value("Clc1ccccc1-c1nc(-c2ccccc2)c(-c2ccccc2)[nH]1")
9.01
>>> numeric_value("Fc1ccc(-c2nc(-c3ccccc3)c(-c3ccccc3)[nH]2)cc1")
10.83
>>> numeric_value("c1ccc(-c2nc[nH]c2-c2ccccc2)cc1")
5.2
>>> numeric_value("COc1ccc(-c2nc(-c3ccccc3)c(-c3ccccc3)[nH]2)cc1")
10.87
>>> numeric_value("Clc1ccc(-c2nc(-c3ccccc3)c(-c3ccccc3)[nH]2)cc1")
10.35
>>> numeric_value("Brc1ccc(-c2nc(-c3ccccc3)c(-c3ccccc3)[nH]2)cc1")
6.38
>>> numeric_value("COc1cccc(-c2nc(-c3ccccc3)c(-c3ccccc3)[nH]2)c1")
8.79
>>> numeric_value("Cc1ccccc1-c1nc(-c2ccccc2)c(-c2ccccc2)[nH]1")
5.79
>>> numeric_value("Nc1ccc(-c2nc(-c3ccccc3)c(-c3ccccc3)[nH]2)cc1")
10.08

----------
Item-by-item account of Activity
# Tested on: Mus musculus
# test-details: Antinociceptive activity in ip dosed Swiss albino mouse assessed as latency time by tail flick method
# Format: functional
assay-metric: Activity (s)

>>> numeric_value("Oc1ccc(-c2nc(-c3ccccc3)c(-c3ccccc3)[nH]2)cc1")
4.4
>>> numeric_value("Clc1ccc(-c2nc(-c3ccccc3)c(-c3ccccc3)[nH]2)cc1")
4.52
>>> numeric_value("Brc1ccc(-c2nc(-c3ccccc3)c(-c3ccccc3)[nH]2)cc1")
4.2
>>> numeric_value("Cc1nc(-c2ccccc2)c(-c2ccccc2)[nH]1")
4.12
>>> numeric_value("Oc1ccccc1-c1nc(-c2ccccc2)c(-c2ccccc2)[nH]1")
4.2
>>> numeric_value("COc1cccc(-c2nc(-c3ccccc3)c(-c3ccccc3)[nH]2)c1")
4.12
>>> numeric_value("Cc1ccccc1-c1nc(-c2ccccc2)c(-c2ccccc2)[nH]1")
4.11
>>> numeric_value("O=[N+]([O-])c1ccc(-c2nc(-c3ccccc3)c(-c3ccccc3)[nH]2)cc1")
4.13
>>> numeric_value("Ic1ccc(-c2nc(-c3ccccc3)c(-c3ccccc3)[nH]2)cc1")
4.16
>>> numeric_value("COc1ccc(-c2nc(-c3ccccc3)c(-c3ccccc3)[nH]2)cc1")
4.58
